The measured values listed here are drawn from patent US20110256180A1.

Provide the recorded Fold-Decrease in fH binding for the entries that follow.
target-or-test-system: T1, human complement factor H (human, UniProt P08603 19-1231)
T1 construct: also called human fH; fH
T1 sequence (P08603 19-1231 limits assumed): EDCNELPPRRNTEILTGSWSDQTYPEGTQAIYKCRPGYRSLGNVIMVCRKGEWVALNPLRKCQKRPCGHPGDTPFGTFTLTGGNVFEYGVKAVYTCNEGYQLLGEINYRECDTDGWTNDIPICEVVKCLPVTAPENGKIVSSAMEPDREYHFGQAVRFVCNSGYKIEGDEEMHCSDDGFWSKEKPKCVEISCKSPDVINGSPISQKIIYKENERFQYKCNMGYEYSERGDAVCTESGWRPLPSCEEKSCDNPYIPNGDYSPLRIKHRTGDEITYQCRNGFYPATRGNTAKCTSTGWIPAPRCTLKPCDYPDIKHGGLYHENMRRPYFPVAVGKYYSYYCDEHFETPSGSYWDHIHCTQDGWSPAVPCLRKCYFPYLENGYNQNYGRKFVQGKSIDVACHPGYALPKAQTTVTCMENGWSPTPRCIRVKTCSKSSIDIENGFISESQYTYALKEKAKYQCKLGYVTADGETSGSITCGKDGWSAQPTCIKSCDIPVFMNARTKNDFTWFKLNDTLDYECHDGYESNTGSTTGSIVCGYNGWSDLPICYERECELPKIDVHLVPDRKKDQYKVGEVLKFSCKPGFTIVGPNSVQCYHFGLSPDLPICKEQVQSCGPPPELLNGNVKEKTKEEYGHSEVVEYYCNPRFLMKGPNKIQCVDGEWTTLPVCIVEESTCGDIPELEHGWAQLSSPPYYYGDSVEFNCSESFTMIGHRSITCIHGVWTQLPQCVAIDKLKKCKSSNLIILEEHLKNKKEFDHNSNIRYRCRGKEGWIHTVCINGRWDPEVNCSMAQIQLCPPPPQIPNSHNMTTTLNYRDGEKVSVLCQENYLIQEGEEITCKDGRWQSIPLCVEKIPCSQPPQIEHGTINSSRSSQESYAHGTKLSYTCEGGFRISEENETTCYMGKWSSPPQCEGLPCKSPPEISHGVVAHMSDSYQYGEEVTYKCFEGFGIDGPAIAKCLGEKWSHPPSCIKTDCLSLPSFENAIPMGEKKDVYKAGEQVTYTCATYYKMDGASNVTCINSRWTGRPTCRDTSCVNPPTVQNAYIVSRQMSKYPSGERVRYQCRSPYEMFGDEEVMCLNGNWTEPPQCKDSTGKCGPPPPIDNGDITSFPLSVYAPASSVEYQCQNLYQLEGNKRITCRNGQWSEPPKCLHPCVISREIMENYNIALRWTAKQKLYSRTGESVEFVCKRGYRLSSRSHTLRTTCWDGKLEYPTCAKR
protocol-details: ELISA, vs respective wildtype fHbp

Examples from the recorded data:
binder	Fold-Decrease in fH binding
fHbp ID 15 S41P mutant (other, also called Pep 15 S41P) CSSGGGGSGGGGVAADIGAGLADALTAPLDHKDKGLKSLTLEDSIPQNGTLTLSAQGAERTFKAGDKDNSLNTGKLKNDKISRFDFIRQIEVDGQLITLESGEFQVYKQSHSALTALQTEQVQDSEHSGKMVAKRQFRIGDIVGEHTSFGKLPKDVMATYRGTAFGSDDAGGKLTYTIDFAAKQGHGKIEHLKSPELNVDLAAADIKPDEKHHAVISGSVLYNQAEKGSYSLGIFGGQAQEVAGSAEVETANGIRHIGLAAKQ	> 50 fold
fHbp ID 77 R41S/K113A double mutant (other) CSSGGGGVAADIGARLADALTAPLDHKDKSLQSLTLDQSVSKNEKLKLAAQGAEKTYGNGDSLNTGKLKNDKVSRFDFIRQIEVDGQLITLESGEFQIYKQDHSAVVALQIEAINNPDKIDSLINQRSFLVSGLGGEHTAFNQLPDGKAEYHGKAFSSDDAGGKLTYTIDFAAKQGHGKIEHLKTPEQNVELAAAELKADEKSHAVILGDTRYGSEEKGTYHLALFGDRAQEIAGSATVKIGEKVHEIGIAGKQ	> 10 fold
fHbp ID 77 R41S/K113A/D121A triple mutant (other) CSSGGGGVAADIGARLADALTAPLDHKDKSLQSLTLDQSVSKNEKLKLAAQGAEKTYGNGDSLNTGKLKNDKVSRFDFIRQIEVDGQLITLESGEFQIYKQDHSAVVALQIEAINNPDKIASLINQRSFLVSGLGGEHTAFNQLPDGKAEYHGKAFSSDDAGGKLTYTIDFAAKQGHGKIEHLKTPEQNVELAAAELKADEKSHAVILGDTRYGSEEKGTYHLALFGDRAQEIAGSATVKIGEKVHEIGIAGKQ	> 50 fold
fHbp ID 15, wild-type (natural chimera, modular group IV) (other, Recombinant; also called Pep 15 WT; peptide 15) CSSGGGGSGGGGVAADIGAGLADALTAPLDHKDKGLKSLTLEDSISQNGTLTLSAQGAERTFKAGDKDNSLNTGKLKNDKISRFDFIRQIEVDGQLITLESGEFQVYKQSHSALTALQTEQVQDSEHSGKMVAKRQFRIGDIVGEHTSFGKLPKDVMATYRGTAFGSDDAGGKLTYTIDFAAKQGHGKIEHLKSPELNVDLAAADIKPDEKHHAVISGSVLYNQAEKGSYSLGIFGGQAQEVAGSAEVETANGIRHIGLAAKQ	0 fold

Field: next binder
Per the record, fHbp ID 77 R41S/D121A double mutant (other) CSSGGGGVAADIGARLADALTAPLDHKDKSLQSLTLDQSVSKNEKLKLAAQGAEKTYGNGDSLNTGKLKNDKVSRFDFIRQIEVDGQLITLESGEFQIYKQDHSAVVALQIEKINNPDKIASLINQRSFLVSGLGGEHTAFNQLPDGKAEYHGKAFSSDDAGGKLTYTIDFAAKQGHGKIEHLKTPEQNVELAAAELKADEKSHAVILGDTRYGSEEKGTYHLALFGDRAQEIAGSATVKIGEKVHEIGIAGKQ has Fold-Decrease in fH binding of > 10 fold
